# credit: paper PMC10279719

# TGT: 14-3-3η (residues 1-246) (human)
# PROTOCOL_NOTES: SPR; 14-3-3 isoforms amine coupled to a CM5 chip, tandem peptides as analytes (10 µM-10 nM for PEAK3 tandem-pS69, 20 µM-20 nM for all others); Biacore S200, 20 °C, HBS-TP; steady state, 1:1 model
Non-standard residues stand in square brackets, D forms with d. pT = C[C@@H](OP(=O)(O)O)[C@H](N)C(=O)O
METRIC_NAME: pKd
# pKd: negative log10 of molar concentration; output just the value

Req: Dear colleague, I am looking for the recorded pKd of the following binder: Ac-PPPLPKKMIIRAN[pT]EPISKD-NH2 [PEAK1 tandem-pT1165 peptide (residues 1152-1171)]
Resp: 5.59
